pIC50: −log10 of the molar value.
Here's a roundup of pIC50 values tested on Glucocorticoid receptor (Homo sapiens, UniProt P04150), taken from various published works.
Experimental readout: pIC50

Compound	Censoring sign	Endpoint result
COc1ccc(F)cc1C(C)(C)CC(O)(CN1CCOCC1)C(F)(F)F (configuration not stated)	<	5.70
Cc1nn(CCNS(C)(=O)=O)c(-c2ccc(F)cc2)c1-c1ccc2c(c1)NC(=O)CO2	<	5.00
Cc1cccc(S(=O)(=O)NC(C)Cc2c[nH]c3ccccc23)c1 (configuration not stated)	<	5.00
COc1ccc2c(c1)CC[C@@H]1[C@@H]2CC[C@@]2(C)[C@H]1CC[C@@]2(O)/C=C/CC(F)(F)C(F)(F)C(F)(F)F	>	5.03
CC(Cc1c[nH]c2ccccc12)NS(=O)(=O)c1cccc(Cl)c1Cl (configuration not stated)	=	5.92
C[C@@H]1C[C@H]2[C@@H]3CCC4=CC(=O)C=C[C@]4(C)[C@@]3(F)[C@@H](O)C[C@]2(C)[C@@]1(O)C(=O)CSCCNC(=S)NCCCN(C)CCCNC(=O)CCNC(=O)c1cc(NC(=O)c2cc(NC(=O)c3nccn3C)cn2C)cn1C	=	7.92
CC(C)(CC(O)C(=O)Nc1ccc2c(c1)COC2=O)c1ccccc1 (configuration not stated)	<	5.70
COc1ccc(F)cc1C(C)(C)CC(O)(Cc1ccc(Cl)cc1Cl)C(F)(F)F (configuration not stated)	=	7.17
C[C@H](NC1=NC(=O)[C@@](C)(C(F)(F)F)S1)c1ccccc1F	<	4.30
Cc1nn(Cc2ccccn2)c(-c2ccc(F)cc2)c1-c1ccc2c(c1)NC(=O)CO2	<	5.00
COc1ccc(F)cc1C(C)(C)CC(O)(Cc1cccc(Cl)c1)C(F)(F)F (configuration not stated)	=	6.26
COC(=O)[C@@H](Cc1c[nH]c2ccccc12)NS(=O)(=O)c1c(C)cc(C)cc1C	<	5.70
Cc1cc(C)c(S(=O)(=O)NC(C)Cc2cc3ccccc3[nH]2)c(C)c1 (configuration not stated)	<	5.70
C=CC[S+]([O-])CC1=CC(C)(C)Nc2ccc(-c3ccccc3OC)cc21 (configuration not stated)	<	5.70
Cc1cc(C)c(S(=O)(=O)NC(C)Cc2c[nH]c3cc(F)ccc23)c(C)c1 (configuration not stated)	=	7.10
Cc1c(Cl)cccc1S(=O)(=O)NC(C)Cc1c[nH]c2ccccc12 (configuration not stated)	=	6.09
OC(c1ccc(Cl)c(Cl)c1)(c1ccc2c(cnn2-c2ccc(F)cc2)c1)C(F)(F)F (configuration not stated)	=	6.75
OC(c1ccc2c(cnn2-c2ccc(F)cc2)c1)(c1ccccc1Cl)C(F)(F)F (configuration not stated)	=	7.46
CC(O)(CC(C)(C)c1ccccc1)C(=O)Nc1ccc2c(c1)COC2=O (configuration not stated)	=	6.43
CC(C)C(O)(CC(C)(C)c1ccccc1)C(=O)Nc1ccc2c(c1)COC2=O (configuration not stated)	=	6.70
COc1ccc(F)cc1C(C)(C)CC(O)(Cn1ccc(=O)c2cnccc21)C(F)(F)F (configuration not stated)	=	7.47
COc1ccc(F)cc1C(C)(C)CC(O)(Cc1cc(Cl)cc(Cl)c1)C(F)(F)F (configuration not stated)	=	7.22
CCc1ccccc1/C=C1\Oc2ccc(F)cc2-c2ccc3c(c21)C(C)=CC(C)(C)N3	=	7.11
COc1ccc(F)cc1C(C)(C)CC(O)(C(=O)Nc1ccc2c(=O)onc(C)c2c1)C(F)(F)F (configuration not stated)	=	8.10
COc1ccc(F)cc1C(C)(C)CC(O)(Cc1ccc(C=O)cc1)C(F)(F)F (configuration not stated)	=	7.70
Cc1nn(Cc2ccncc2)c(-c2ccc(F)cc2)c1-c1ccc2c(c1)NC(=O)CO2	<	5.00
Cc1cc(F)ccc1-n1nc(C(F)(F)F)cc1-c1cc(F)c2c(c1)NC(=O)CO2	=	5.77
